These entries and their values trace back to paper PMC10397247.

system_under_test: GCN2_T
protocol_text: two-hybrid library CCmax;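 also: natural log of median RNA to DNA barcode read ratio; higher means stronger binding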
measure: interaction score

Using the record for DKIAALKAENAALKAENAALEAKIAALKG [4H2774-AA] , report its interaction score. -1.68

Subsequent entry: DEIAALEAKNAALKAELAAIEAKIAAKKG [AP5-AA] -0.794

Subsequent entry: DKIAALKAKIAALKAENAALEAEIAALKG [4H2898-AA] -0.0478

Subsequent entry: DEIAALEAKNAALEAENAALEAKIAALKG [4H406-AA] -1.43

Subsequent entry: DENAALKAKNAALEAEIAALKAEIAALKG [4H1930-AA] -1.22

Subsequent entry: DENAALEAEIAALKAKIAALKAKNAALKG [4H1136-AA] -1.68

Subsequent entry: DENAALKAKIAALEAKIAALEAENAALKG [4H1828-AA] -2.49
